molecular target: Bromodomain-containing protein 4 (Homo sapiens); assay: Inhibition of His-tagged BRD4 BD1 (unknown origin) using biotinylated-JQ1 peptide as substrate incubated for 1 hr by AlphaScreen assay
Assay metric: IC50 (µM)

I: Cc1noc2cc(-c3ccn4c(NC5CCCCC5)c(CCc5ccccc5)nc4c3)ccc12
II: COc1ccc(CCc2nc3cc(-c4c(C)noc4C)ccn3c2NCc2ccc(Cl)cc2)cc1
Asked: Param metric = IC50; output whichever of I , II has the minimum value. Pick one and reply with its label.
Given back: I
(I: 3.02 µM, II: 7.94 µM)

====

species on record: Homo sapiens; experiment: Selectivity ratio of IC50 for His-tagged BRD4 BD1 (unknown origin) using biotinylated-JQ1 peptide as substrate to IC50 for His-tagged CBP (unknown origin) using biotinylated-H3K56ac peptide as substrate incubated for 1 hr by AlphaScreen assay
Assay metric: Ratio IC50

As a guide, the following entries are already answered.
• COc1ccc(-c2nc3cc(-c4c(C)noc4C)ccn3c2NCC(=O)OC(C)(C)C)cc1 = > 3
• COc1ccc(CCCc2nc3cc(-c4c(C)noc4C)ccn3c2NC(C)(C)CC(C)(C)C)cc1 = 1
• Cc1noc(C)c1-c1ccn2c(NCC(=O)OC(C)(C)C)c(CCc3ccccc3)nc2c1 = > 6
• COc1ccc(-c2nc3cc(-c4c(C)noc4C)ccn3c2NC23CC4CC(CC(C4)C2)C3)cc1 = > 23
• COc1ccc(-c2nc3cc(C)cc(C)n3c2NC(C)(C)CC(C)(C)C)cc1 = > 3
• COc1ccc(CCc2nc3cc(-c4c(C)noc4C)ccn3c2NC(C)(C)C)cc1 = > 21
• CCOc1ccc(CCc2nc3cc(-c4c(C)noc4C)ccn3c2NC(C)(C)CC(C)(C)C)cc1Cl = > 2

Proceed to the following item.
Asked: Give its Ratio IC50 value. Item: "CCOc1ccc(CCc2nc3cc(-c4c(C)noc4C)ccn3c2NC(C)(C)CC(C)(C)C)cc1"
Given back: > 1

Reference source for all entries: ChEMBL document CHEMBL4823258
